# System: antibodies in sera from SARS patients (sera 1a, 1b, 2, 6, 37, 62, London, SARS-yellow, SARS-green)
# Assay type: binding, human
REPORTED METRIC: Binding of serum 1a to linear peptides of protein X3 of SARS-CoV Urbani
Give only the figure.

Worked cases, Binding of serum 1a to linear peptides of protein X3 of SARS-CoV Urbani given:
sequence_entry=FHLVDFQVTIAEILI numeric_readout=0.8
sequence_entry=FRIAIWNLDVIISSI numeric_readout=0.8
sequence_entry=LDVIISSIVRQLFKP numeric_readout=0.8
sequence_entry=VTIAEILIIIMRTFR numeric_readout=0.7
sequence_entry=DVIISSIVRQLFKPL numeric_readout=0.7

Now turn to the next sequence.
Need Binding of serum 1a to linear peptides of protein X3 of SARS-CoV Urbani of HLVDFQVTIAEILII , thanks.
0.8

----------
# System: recombinant human anti-SARS-CoV antibody 03-018
# Assay type: binding
# Set-up: unit not given here
REPORTED METRIC: Binding of antibody 03-018 to looped/cyclic peptides of the N protein of SARS-CoV Urbani
Please give the numeric answer without any surrounding text.

Some sequences with known Binding of antibody 03-018 to looped/cyclic peptides of the N protein of SARS-CoV Urbani results, for comparison:
sequence_entry=SQASSRSSSRSRGNS numeric_readout=0.2
sequence_entry=GGETALALLLLDRLN numeric_readout=0.2
sequence_entry=QNGGRNGARPKQRRP numeric_readout=0.3
sequence_entry=YKTFPPTEPKKDKKK numeric_readout=0.2
sequence_entry=KTFPPTEPKKDKKKK numeric_readout=0.2
sequence_entry=QKRTATKQYNVTQAF numeric_readout=0.2

# lookup: Binding of antibody 03-018 to looped/cyclic peptides of the N protein of SARS-CoV Urbani of KKKTDEAQPLPQRQK
0.2

Entry GPTDSTDNNQNGGRN please
0.2

Please answer likewise for DDQIGYYRRATRRVR
0.3

Entry NTPKDHIGTRNPNNN please
0.2

For GQTVTKKSAAEASKK then?
0.2

Do the same for HIGTRNPNNNAATVL please
0.3

----------
# Tested on: antibodies in sera from SARS patients (sera 1a, 1b, 2, 6, 37, 62, London, SARS-yellow, SARS-green)
# Type: binding, human
Form field: Binding of serum 1a to linear peptides of protein X4 of SARS-CoV Urbani (one value per entry).
Please respond with just the number, no unit label.

Examples with their reported Binding of serum 1a to linear peptides of protein X4 of SARS-CoV Urbani follow.
sequence_entry=AFACADGTRHTYQLR numeric_readout=0.6
sequence_entry=VFTSCELYHYQECVR numeric_readout=0.8
sequence_entry=FTSCELYHYQECVRG numeric_readout=0.8
sequence_entry=LRARSVSPKLFIRQE numeric_readout=0.7

For the sequence shown here, FIRQEEVQQELYSPL , give the reported Binding of serum 1a to linear peptides of protein X4 of SARS-CoV Urbani.
0.8

IVAALVFLILCFTIK ?
0.6

----------
# System: control sera (pooled serum of ten healthy LUMC hospital workers; commercial negative donor pooled serum from the Dutch bloodbank)
# Format: binding, human
# Set-up: unit not given here
REPORTED METRIC: Binding of Control serum Blood-bank to linear peptides of the protein M of SARS-CoV Urbani
Respond numerically, and do not add a unit to the figure.

sequence_entry=INWVTGGIAIAMACI numeric_readout=0.8
sequence_entry=RPLMESELVIGAVII numeric_readout=0.6
sequence_entry=AYNRYRIGNYKLNTD numeric_readout=0.6

Could you now look at the following sequence, please?
I would be grateful if you could share the reported Binding of Control serum Blood-bank to linear peptides of the protein M of SARS-CoV Urbani for FAAYNRYRIGNYKLN .
0.7
